Sourced from ChEMBL document CHEMBL1148475

pKi for assorted molecules
Target: UniProtKB P30968
Assay: In vitro binding affinity to human luteinizing hormone-releasing hormone (LHRH) receptor cloned in CHO cells
Type: cell-based
In plain terms, pKi is the concentration in mol/L turned into minus its base-10 logarithm.

CC[C@H]1OC(=O)[C@H](C)[C@@H](OC(=O)N2C(=O)OC[C@@H]2C)[C@H](C)[C@@H](OC2O[C@H](C)C[C@H](N(C)C3CCCC3)[C@H]2O)[C@@](C)(OC)C[C@@H](C)C(=O)[C@H](C)[C@H]2N(CCc3ccc(Cl)cc3)C(=O)O[C@]12C (some centres undefined) = 7.42
CC[C@H]1OC(=O)[C@H](C)[C@@H](OC(=O)C2CCCC2)[C@H](C)[C@@H](OC2O[C@H](C)C[C@H](N(C)C(C)C)[C@H]2O)[C@@](C)(OC)C[C@@H](C)C(=O)[C@H](C)[C@H]2N(CCc3ccc(Cl)cc3)C(=O)O[C@]12C (some centres undefined) = 6.20
CC[C@H]1OC(=O)[C@H](C)[C@@H](OC(=O)N2CCNC2=O)[C@H](C)[C@@H](OC2O[C@H](C)C[C@H](N(C)C(C)C)[C@H]2O)[C@@](C)(OC)C[C@@H](C)C(=O)[C@H](C)[C@H]2N(CCc3ccc(Cl)cc3)C(=O)O[C@]12C (some centres undefined) = 5.69

Query molecule follows.
Enquiry: Report pKi for CC[C@H]1OC(=O)[C@H](C)[C@@H](OC(=O)N2C(=O)OC[C@@H]2C)[C@H](C)[C@@H](O[C@@H]2O[C@H](C)C[C@H](N(C)CC3CC3)[C@H]2O)[C@@](C)(OC)C[C@@H](C)C(=O)[C@H](C)[C@H]2N(CCc3ccc(Cl)c(Cl)c3)C(=O)O[C@]12C tested on UniProtKB P30968.
Return: 8.73

###

Below: a set of entries, each annotated with reported pKi.
Biological target: Gonadotropin-releasing hormone receptor (Rattus norvegicus, UniProt P30969)
Sequence (P30969 whole entry): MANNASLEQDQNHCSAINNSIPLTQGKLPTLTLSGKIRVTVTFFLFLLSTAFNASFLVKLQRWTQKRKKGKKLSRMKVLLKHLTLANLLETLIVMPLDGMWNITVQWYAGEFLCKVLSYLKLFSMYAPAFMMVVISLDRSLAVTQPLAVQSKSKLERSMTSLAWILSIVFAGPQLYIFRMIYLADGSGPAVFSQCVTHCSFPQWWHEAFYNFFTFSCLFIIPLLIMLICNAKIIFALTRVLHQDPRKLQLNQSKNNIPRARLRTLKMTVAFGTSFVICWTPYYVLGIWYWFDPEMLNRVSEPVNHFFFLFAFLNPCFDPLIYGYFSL
Assay: In vitro binding affinity to rat luteinizing hormone-releasing hormone (LHRH) receptor cloned in CHO cells
Keep it numeric: pKi is minus log10 of the concentration in mol/L.

Below: 2 compounds and their reported pKi.
CC[C@H]1OC(=O)[C@H](C)[C@@H](OC(=O)N2CCOC2C)[C@H](C)[C@@H](OC2O[C@H](C)C[C@H](N(C)C(C)C)[C@H]2O)[C@@](C)(OC)C[C@@H](C)C(=O)[C@H](C)[C@H]2N(CCc3ccc(Cl)cc3)C(=O)O[C@]12C (stereo partly drawn) = 6.92
CC[C@H]1OC(=O)[C@H](C)[C@@H](OC(=O)N2C(=O)OC[C@@H]2C)[C@H](C)[C@@H](OC2O[C@H](C)C[C@H](N(C)C3CCCC3)[C@H]2O)[C@@](C)(OC)C[C@@H](C)C(=O)[C@H](C)[C@H]2N(CCc3ccc(Cl)cc3)C(=O)O[C@]12C (stereo partly drawn) = 8.93

Field: next compound
Enquiry: Requested read-out: pKi. Entry: CC[C@H]1OC(=O)[C@H](C)[C@@H](OC(=O)N2CCOCC2)[C@H](C)[C@@H](OC2O[C@H](C)C[C@H](N(C)C(C)C)[C@H]2O)[C@@](C)(OC)C[C@@H](C)C(=O)[C@H](C)[C@H]2N(CCc3ccc(Cl)cc3)C(=O)O[C@]12C (stereo partly drawn)
Return: 6.37

###

Target: Gonadotropin-releasing hormone receptor (Homo sapiens, UniProt P30968)
Sequence (P30968 whole entry): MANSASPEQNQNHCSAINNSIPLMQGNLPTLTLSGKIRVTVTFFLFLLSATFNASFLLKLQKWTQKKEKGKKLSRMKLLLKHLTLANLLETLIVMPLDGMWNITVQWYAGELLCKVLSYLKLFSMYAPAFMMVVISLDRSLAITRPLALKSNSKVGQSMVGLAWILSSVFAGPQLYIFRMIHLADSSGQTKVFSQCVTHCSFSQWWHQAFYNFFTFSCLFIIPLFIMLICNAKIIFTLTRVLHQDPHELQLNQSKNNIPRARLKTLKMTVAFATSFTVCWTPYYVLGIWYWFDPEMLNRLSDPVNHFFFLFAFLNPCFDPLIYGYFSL
Assay: In vitro binding affinity to human luteinizing hormone-releasing hormone (LHRH) receptor cloned in CHO cells
Format: cell-based
Parameter pKi: see the listing below.
The meaning of pKi here: minus log10 of the concentration in molar units.

Example compounds with recorded pKi:
CC[C@H]1OC(=O)[C@H](C)[C@@H](OC(=O)N2C(=O)OCC2(C)C)[C@H](C)[C@@H](OC2O[C@H](C)C[C@H](N(C)C(C)C)[C@H]2O)[C@@](C)(OC)C[C@@H](C)C(=O)[C@H](C)[C@H]2N(CCc3ccc(Cl)cc3)C(=O)O[C@]12C (some centres undefined) = 7.10
CC[C@H]1OC(=O)[C@H](C)[C@@H](OC(=O)N2C(=O)OC[C@@H]2C)[C@H](C)[C@@H](OC2O[C@H](C)C[C@H](N(C)C(C)C)[C@H]2O)[C@@](C)(OC)C[C@@H](C)C(=O)[C@H](C)[C@H]2N(CCc3ccc(Cl)c(Cl)c3)C(=O)O[C@]12C (some centres undefined) = 7.82
CC[C@H]1OC(=O)[C@H](C)[C@@H](OC(=O)N2CC(C)OC2=O)[C@H](C)[C@@H](OC2O[C@H](C)C[C@H](N(C)C(C)C)[C@H]2O)[C@@](C)(OC)C[C@@H](C)C(=O)[C@H](C)[C@H]2N(CCc3ccc(Cl)cc3)C(=O)O[C@]12C (some centres undefined) = 7.44

Enquiry: May I ask what pKi has been recorded for CC[C@H]1OC(=O)[C@H](C)[C@@H](OC(=O)N2C(=O)OC[C@@H]2C)[C@H](C)[C@@H](OC2O[C@H](C)C[C@H](N(C)C(C)C)[C@H]2O)[C@@](C)(OC)C[C@@H](C)C(=O)[C@H](C)[C@H]2N(CCc3ccc(Cl)cc3)C(=O)O[C@]12C (some centres undefined) ?
Return: 7.73

###

Molecular target: UniProt:P30969
Assay: In vitro binding affinity to rat luteinizing hormone-releasing hormone (LHRH) receptor cloned in CHO cells
Format: cell-based
pKi for assorted compounds
Expect pKi as a plain number equal to -log10 of the molar concentration.

CC[C@H]1OC(=O)[C@H](C)[C@@H](OC(=O)N2C(=O)O[C@H](C)[C@@H]2C)[C@H](C)[C@@H](OC2O[C@H](C)C[C@H](N(C)C(C)C)[C@H]2O)[C@@](C)(OC)C[C@@H](C)C(=O)[C@H](C)[C@H]2N(CCc3ccc(Cl)cc3)C(=O)O[C@]12C (some centres not stated) = 8.54

Enquiry: Sample CC[C@H]1OC(=O)[C@H](C)[C@@H](OC2C[C@@](C)(OC)[C@@H](O)[C@H](C)O2)[C@H](C)[C@@H](OC2O[C@H](C)C[C@H](N(C)C(C)C)[C@H]2O)[C@@](C)(OC)C[C@@H](C)C(=O)[C@H](C)[C@H]2N(CCc3ccc(Cl)cc3)C(=O)O[C@]12C (some centres not stated) — what was its pKi?
Return: 8.35

###

# key: entry, value: pKi
Molecular target: Gonadotropin-releasing hormone receptor (Homo sapiens)
Test: In vitro binding affinity to human luteinizing hormone-releasing hormone (LHRH) receptor cloned in CHO cells
Format: cell-based
As a rule, pKi stands for the negative log10 of the concentration, concentration in M.

Before answering, review these 3 worked examples.
CC[C@H]1OC(=O)[C@H](C)[C@@H](OC(=O)C2CCOC2)[C@H](C)[C@@H](OC2O[C@H](C)C[C@H](N(C)C(C)C)[C@H]2O)[C@@](C)(OC)C[C@@H](C)C(=O)[C@H](C)[C@H]2N(CCc3ccc(Cl)cc3)C(=O)O[C@]12C (stereo partly drawn) = 6.67
CC[C@H]1OC(=O)[C@H](C)[C@@H](OC(=O)CC(C)C)[C@H](C)[C@@H](OC2O[C@H](C)C[C@H](N(C)C(C)C)[C@H]2O)[C@@](C)(OC)C[C@@H](C)C(=O)[C@H](C)[C@H]2N(CCc3ccc(Cl)cc3)C(=O)O[C@]12C (stereo partly drawn) = 5.69
CC[C@H]1OC(=O)[C@H](C)[C@@H](OC(=O)N2CCOCC2)[C@H](C)[C@@H](OC2O[C@H](C)C[C@H](N(C)C(C)C)[C@H]2O)[C@@](C)(OC)C[C@@H](C)C(=O)[C@H](C)[C@H]2N(CCc3ccc(Cl)cc3)C(=O)O[C@]12C (stereo partly drawn) = 5.25

Enquiry: # query: pKi of entry CC[C@H]1OC(=O)[C@H](C)[C@@H](OC(=O)N2C(=O)OC[C@H]2CC(C)C)[C@H](C)[C@@H](OC2O[C@H](C)C[C@H](N(C)C(C)C)[C@H]2O)[C@@](C)(OC)C[C@@H](C)C(=O)[C@H](C)[C@H]2N(CCc3ccc(Cl)cc3)C(=O)O[C@]12C (stereo partly drawn)
Return: 6.56

Enquiry: What does the data say about its pKi? Entry: CC[C@H]1OC(=O)[C@H](C)[C@@H](OC(=O)N2CCCC2)[C@H](C)[C@@H](OC2O[C@H](C)C[C@H](N(C)C(C)C)[C@H]2O)[C@@](C)(OC)C[C@@H](C)C(=O)[C@H](C)[C@H]2N(CCc3ccc(Cl)cc3)C(=O)O[C@]12C (stereo partly drawn)
Return: 5.79

Enquiry: Can you look up the measured pKi of CC[C@H]1OC(=O)[C@H](C)[C@@H](OC(=O)N2CCOC2=O)[C@H](C)[C@@H](OC2O[C@H](C)C[C@H](N(C)C(C)C)[C@H]2O)[C@@](C)(OC)C[C@@H](C)C(=O)[C@H](C)[C@H]2N(CCc3ccc(Cl)cc3)C(=O)O[C@]12C (stereo partly drawn) for me?
Return: 6.94

Enquiry: Quick one: pKi for CC[C@H]1OC(=O)[C@H](C)[C@@H](O)[C@H](C)[C@@H](OC2O[C@H](C)C[C@H](N(C)C(C)C)[C@H]2O)[C@@](C)(OC)C[C@@H](C)C(=O)[C@H](C)[C@H]2N(CCc3ccc(Cl)cc3)C(=O)O[C@]12C (stereo partly drawn) ?
Return: 5.00

Enquiry: If you can, please state the reported pKi value of CC[C@H]1OC(=O)[C@H](C)[C@@H](OC(=O)N2CCN(C)C2=O)[C@H](C)[C@@H](OC2O[C@H](C)C[C@H](N(C)C(C)C)[C@H]2O)[C@@](C)(OC)C[C@@H](C)C(=O)[C@H](C)[C@H]2N(CCc3ccc(Cl)cc3)C(=O)O[C@]12C (stereo partly drawn) .
Return: 5.33
